Provenance of the data: patent US20260132182A1

- test-system: human GLP-1 receptor (human, UniProt P43220 24-463)
- assay-notes: cell-based or functional assay
Starred links: 1 amine or outer side, 2 acyl side, 3 side chain; linkers in the order of their positions; H or OH if unused. Non-standard residues stand in square brackets, D forms with d. Groups on a side chain read outwards from the residue. *: point of attachment. Decanoyl(10-(4-HOOC-PhO)) = O=C(O)c1ccc(OCCCCCCCCCC(=O)*)cc1; C20 diacid = O=C(O)CCCCCCCCCCCCCCCCCCC(=O)*; C16 diacid = O=C(O)CCCCCCCCCCCCCCC(=O)*; γGlu = O=C(O)[C@H](CCC(=O)[*:2])N[*:1]; AEEA = NCCOCCOCC(=O)O; Aib = CC(C)(N)C(=O)O
Measured Human GLP-1R potency [EC50 (pM)] accompanies every entry in the list below.
endpoint-label: Human GLP-1R potency [EC50 (pM)]

Compound 0234 (peptide) peptide: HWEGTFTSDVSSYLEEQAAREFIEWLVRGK([AEEA-AEEA-γGlu-Decanoyl(10-(4-HOOC-PhO))])GEGGGGGASELSTAALGRLSAELHELK([AEEA-AEEA-γGlu-Decanoyl(10-(4-HOOC-PhO))])TLPRTETGSGSP-NH2 :: 38.9 pM
Compound 0629 (not fully specified (residue 21)) peptide: H[Aib]EGTFTSDVSK([AEEA-AEEA-γGlu-C16 diacid])YLEEQAARKFIEWLVRGAAEASELSTAALGRLSAELHELATLPRTETGSGSP-NH2 :: 7.9 pM
Compound 0284 (peptide) peptide: H[Aib]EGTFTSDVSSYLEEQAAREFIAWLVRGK([AEEA-AEEA-γGlu-C16 diacid])GGGGGEASELSTAALGRLSAELHELATLK([AEEA-AEEA-γGlu-C16 diacid])RTETGSGSP-NH2 :: 41.7 pM
Compound 0141 (peptide) peptide: H[Aib]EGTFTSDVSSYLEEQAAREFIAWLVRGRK([γGlu-C20 diacid])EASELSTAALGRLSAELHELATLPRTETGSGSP-NH2 :: 43.3 pM
